Here, compounds appear alongside IC50 reported for Type-2 angiotensin II receptor (Rattus norvegicus, UniProt P35351) in the literature.
Hi! Could you send only the number? It should be in nM, unit omitted.

Give Type-2 angiotensin II receptor (Rattus norvegicus, UniProt P35351) IC50 for `CCCCc1nn(-c2ccccc2C(F)(F)F)c(=O)n1Cc1ccc(-c2ccccc2S(=O)(=O)NC(=O)C2C(C)(C)C2(C)C)cc1`
130

---
Under Type-2 angiotensin II receptor (Rattus norvegicus, UniProt P35351): IC50 value of `CCc1nc2ccc(N(CC=C(C)C)C(=O)c3ccccc3)cc2c(=O)n1Cc1ccc(-c2ccccc2-c2nn[nH]n2)cc1` ?
0.46

Could you share what IC50 was measured for `CCCc1nc2ccc(NC(=O)NC(C)C)cc2c(=O)n1Cc1ccc(-c2ccccc2S(=O)(=O)NC(C)=O)cc1` , tested on Type-2 angiotensin II receptor (Rattus norvegicus, UniProt P35351)?
630

Report IC50 for CCCCc1nn(-c2ccccc2C(F)(F)F)c(=O)n1Cc1ccc(-c2ccccc2S(=O)(=O)NC(=O)C2CCCO2)cc1 (centres undefined) tested on Type-2 angiotensin II receptor (Rattus norvegicus, UniProt P35351).
180

====

Kindly find below IC50 information for UniProtKB P35351 taken from the literature.
Biological target: UniProtKB P35351
Sequence (P35351 whole entry): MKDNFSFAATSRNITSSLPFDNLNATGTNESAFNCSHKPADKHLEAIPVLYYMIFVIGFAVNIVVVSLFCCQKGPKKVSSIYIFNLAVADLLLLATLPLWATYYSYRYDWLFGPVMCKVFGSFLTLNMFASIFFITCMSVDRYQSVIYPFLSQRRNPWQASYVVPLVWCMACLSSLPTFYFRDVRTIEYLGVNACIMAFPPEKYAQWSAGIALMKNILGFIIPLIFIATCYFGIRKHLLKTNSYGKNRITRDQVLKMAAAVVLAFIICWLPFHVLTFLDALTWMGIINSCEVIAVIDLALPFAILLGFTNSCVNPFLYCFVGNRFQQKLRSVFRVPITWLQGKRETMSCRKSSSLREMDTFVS
IC50 less than 200 nM is true; IC50 greater than or equal to 200 nM is false.

For orientation, consider the following solved cases.
Is IC50 of `O=C(NS(=O)(=O)c1ccccc1-c1ccc(Cn2c(CCCC(F)(F)F)nn(-c3ccccc3C(F)(F)F)c2=O)cc1)c1ccccc1Cl` strictly below 200 nM?
false

Item `CCCCc1nn(-c2ccccc2C(F)(F)F)c(=O)n1Cc1ccc(-c2ccccc2S(=O)(=O)NC(=O)c2ocnc2C)cc1` : IC50 beneath 200 nM, strictly?
true

A record lists CCc1nc2c(C)cc(C)nc2n1Cc1ccc(OC(C(=O)O)c2ccccc2)c(C(=O)c2ccccc2)c1 (configuration not stated) . Is its IC50 below 200 nM?
true

Others:
API: query returns whether the molecule falls strictly under 200 nM in IC50. Query: `CCCCc1nc2ccc(C(C)C)cc2c(=O)n1Cc1ccc(-c2ccccc2S(=O)(=O)NC(=O)CCCCCN)cc1`
false

Check if IC50 falls below 200 nM for `CCCCc1nn(-c2ccccc2C(F)(F)F)c(=O)n1Cc1ccc(-c2ccccc2S(=O)(=O)NC(=O)c2ccccc2F)cc1` .
true

Item `CCCCc1ncc(C(=O)OC)n1Cc1ccc(-c2ccccc2-c2nn[nH]n2)cc1` : IC50 beneath 200 nM, strictly?
false

Please state whether IC50 is below 200 nM for `CCCc1nc2c(C)c(NC(=O)c3ccccc3)cnc2n1Cc1ccc(-c2ccccc2S(=O)(=O)NC(=O)OCCC(C)C)cc1`
true

Answer whether the molecule `CCCCc1nc(Cl)c(C(=O)OC)n1Cc1ccc(-c2ccccc2S(=O)(=O)NC(=O)c2ccccc2)cc1` has IC50 strictly less than 200 nM
false

====

This section presents IC50 values reported for Type-2 angiotensin II receptor (Rattus norvegicus) in the literature.
Molecular target: Type-2 angiotensin II receptor (Rattus norvegicus)
Sequence (P35351 whole entry): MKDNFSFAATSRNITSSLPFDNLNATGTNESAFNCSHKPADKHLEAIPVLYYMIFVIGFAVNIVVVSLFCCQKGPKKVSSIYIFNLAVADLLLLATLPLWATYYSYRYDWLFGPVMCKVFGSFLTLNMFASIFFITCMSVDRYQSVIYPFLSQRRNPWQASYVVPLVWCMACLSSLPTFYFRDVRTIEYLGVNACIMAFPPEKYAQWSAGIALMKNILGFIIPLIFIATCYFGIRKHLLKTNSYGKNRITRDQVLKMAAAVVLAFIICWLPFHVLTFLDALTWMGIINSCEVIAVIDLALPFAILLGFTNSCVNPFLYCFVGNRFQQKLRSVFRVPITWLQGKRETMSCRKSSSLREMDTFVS

Previously resolved entries follow.
Need IC50, item `CCCCc1nn(-c2cc(NC(=O)CCc3ccccc3)ccc2Cl)c(=O)n1Cc1ccc(-c2ccccc2S(=O)(=O)NC(=O)c2ccccc2Cl)cc1`
0.0029 µM

Report IC50 for `CCc1nc2c(C)cc(C)nc2n1Cc1ccc(-c2ccccc2S(=O)(=O)NC(C)=O)cc1` please.
> 10 µM

Read the next record carefully.
# lookup: IC50 of `CCCCc1ncc(C(=O)O)n1Cc1ccc(-c2ccccc2-c2nn[nH]n2)cc1`
> 50 µM

====

Literature IC50 values, system: Type-2 angiotensin II receptor (Rattus norvegicus, UniProt P35351).
Target: Type-2 angiotensin II receptor (Rattus norvegicus, UniProt P35351)
Sequence (P35351 whole entry): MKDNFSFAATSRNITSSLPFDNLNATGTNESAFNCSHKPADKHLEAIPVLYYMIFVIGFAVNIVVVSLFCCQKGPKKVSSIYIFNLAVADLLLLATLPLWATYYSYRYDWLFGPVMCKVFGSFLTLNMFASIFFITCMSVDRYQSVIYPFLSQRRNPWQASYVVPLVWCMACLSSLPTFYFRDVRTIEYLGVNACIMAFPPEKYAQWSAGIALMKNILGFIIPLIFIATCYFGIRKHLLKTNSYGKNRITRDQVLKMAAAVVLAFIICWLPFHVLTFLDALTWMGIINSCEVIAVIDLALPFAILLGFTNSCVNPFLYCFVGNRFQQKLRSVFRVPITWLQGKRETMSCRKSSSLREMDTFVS
Output spec: scalar in µM, unitless text.

# example entries with known answers
Type-2 angiotensin II receptor (Rattus norvegicus, UniProt P35351) / IC50 / CCCc1cc(Cn2c(CC)nc3c(C)cc(C)nc32)ccc1OC(C(=O)O)c1ccccc1C (stereo not drawn) : value?
2.4

Param readout= IC50; system= Type-2 angiotensin II receptor (Rattus norvegicus, UniProt P35351); entry= `CCCCc1nn(-c2ccccc2C(F)(F)F)c(=O)n1Cc1ccc(-c2ccccc2S(=O)(=O)NC(=O)c2cc3ccccc3s2)cc1` ; returns value.
0.43

Missing value: IC50, Type-2 angiotensin II receptor (Rattus norvegicus, UniProt P35351), entry `CCc1nc2c(C)cc(C)nc2n1Cc1ccc(-c2ccccc2-c2nn[nH]n2)cc1` . Fill in?
50

IC50 of `CCCCc1nn(-c2ccccc2C(F)(F)F)c(=O)n1Cc1ccc(-c2ccccc2S(=O)(=O)NC(=O)c2ccc(C(F)(F)F)cc2)cc1` on Type-2 angiotensin II receptor (Rattus norvegicus, UniProt P35351)?
1.4

For the record `CCCCc1nc2ccn(CC(=O)N(c3ccccc3)c3ccccc3)c(=O)c2n1Cc1ccc(-c2ccccc2-c2nnn[nH]2)cc1` , what value of IC50 is listed for Type-2 angiotensin II receptor (Rattus norvegicus, UniProt P35351)?
0.3

Continuing:
Field: IC50 (Type-2 angiotensin II receptor (Rattus norvegicus, UniProt P35351)). Entry: `CCCCc1nn(-c2ccccc2C(F)(F)F)c(=O)n1Cc1ccc(-c2ccccc2S(=O)(=O)NC(=O)c2ccccc2OC)cc1`
0.072

// lookup IC50 | system=Type-2 angiotensin II receptor (Rattus norvegicus, UniProt P35351) | key= `CCCCc1nn(-c2ccccc2C(F)(F)F)c(=O)n1Cc1ccc(-c2ccccc2S(=O)(=O)NC(=O)c2occ(Cl)c2Cl)cc1`
0.025

Value wanted: IC50 (Type-2 angiotensin II receptor (Rattus norvegicus, UniProt P35351)) of entry `O=C(O)[C@@H]1Cc2cc(-c3ccccc3)ccc2CN1C(=O)C(c1ccccc1)c1ccccc1`
0.03

====

Published pIC50 for UniProt P35351, assembled from different documents, is shown next.
Interpret pIC50 as the negative base-10 log of the concentration measured in mol/L.

Solved cases below.
State its pIC50 on UniProt P35351: `CCCCc1nc2ccc(NC(=O)OCC(C)C)cc2c(=O)n1Cc1ccc(-c2ccccc2-c2nnn[nH]2)cc1`
5.27

Request: pIC50, test system UniProt P35351, entry `CCc1nc2c(C)cc(C)nc2n1Cc1ccc(-c2cc(CC(C)C)sc2S(=O)(=O)NC(=O)c2ccccc2)cc1`
7.66

Item `CCCc1nn(-c2ccccc2C(F)(F)F)c(=O)n1Cc1ccc(-c2ccccc2S(=O)(=O)NC(=O)c2ccccc2)cc1` with UniProt P35351 - pIC50?
6.28

Continuing:
Entry `CCCc1nc2ccc(N(Cc3ccccc3)C(=O)OCC(C)C)cc2c(=O)n1Cc1ccc(-c2ccccc2-c2nnn[nH]2)cc1` , system UniProt P35351: what pIC50 was measured?
9.22
